Please go through the items and note down their normalized growth.
# ASSAY_COMMENT: chemical genetic growth profiling, strain panel (AID 1159580);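 note: tested at 20 µM; growth read once vehicle control cultures reached saturation at 30 °C; 1 = growth at the plate median or of vehicle wells; lower values mean less growth of the strain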
# CONDITION_CONTEXT: S. cerevisiae deletion strains, growth OD, locus YCL016C, strain dcc1, stronger effect = lower value
The campaign covered roughly 5,500 compounds. About 2,000 (36%) were called active. About 18% were inconclusive and are not listed. This is one part of the list.
Please reply with the number alone, leaving off any unit.

The compound listed as CC(=O)O[C@H]1CC[C@@]2(C)C(C[C@@H](OC(C)=O)[C@@]3(C)C4=CC(=O)O[C@@H](c5ccoc5)[C@]4(C)CCC23)C1(C)C (stereo partly drawn) has a reported normalized growth of 1.01

The compound listed as CC(C)(C)NC[C@H](O)c1ccc(O)c(CO)c1 has a reported normalized growth of 1.02

The compound listed as CC(=O)O[C@@H]1CC2C(C)(C)[C@H](O)C=C[C@]2(C)C2CC[C@]3(C)C(=CC(=O)O[C@H]3c3ccoc3)[C@@]21C (stereo partly drawn) has a reported normalized growth of 0.995

The compound listed as C[C@H](CCC(=O)O)[C@H]1CCC2C3C(=O)CC4CC(=O)CC[C@]4(C)C3CC(=O)[C@@]21C (stereo partly drawn) has a reported normalized growth of 1.02

The compound listed as C[n+]1ccccc1/C=N/O has a reported normalized growth of 1.01

The compound listed as NC1=NCCN1CC(=O)O has a reported normalized growth of 1.01

The compound listed as COC(=O)c1c(OC)cc2c(c1C)Oc1c(Cl)c(O)c(Cl)c(C)c1C(=O)O2 has a reported normalized growth of 0.99

The compound listed as NCC(=O)c1ccccc1 has a reported normalized growth of 1

The compound listed as CN(C)CCCN1c2ccccc2CCc2ccccc21 has a reported normalized growth of 0.994

The compound listed as COC(=O)c1c(OC)cc2c(c1C)Oc1c(Cl)c(OC(C)=O)c(Cl)c(C)c1C(=O)O2 has a reported normalized growth of 0.99

The compound listed as O=C(O)C1=CCCNC1 has a reported normalized growth of 1.02

The compound listed as COc1ccc(C2Sc3ccccc3N(CCN(C)C)C(=O)C2OC(C)=O)cc1 (stereo not drawn) has a reported normalized growth of 0.999

The compound listed as CN(C)CCCN1c2ccccc2Sc2ccc(C(F)(F)F)cc21 has a reported normalized growth of 1.01

The compound listed as CCN1CCN(C(=O)NC(C(=O)N[C@@H]2C(=O)N3[C@@H]2SC(C)(C)[C@@H]3C(=O)O)c2ccccc2)C(=O)C1=O (stereo partly drawn) has a reported normalized growth of 1

The compound listed as CC(=O)c1cc(CC=C(C)C)c(O)c(CC=C(C)C)c1 has a reported normalized growth of 1.01

The compound listed as CC(CCC(=O)O)[C@H]1CCC2C3C(=O)C[C@@H]4CC(=O)CC[C@]4(C)C3CC(=O)[C@@]21C (stereo partly drawn) has a reported normalized growth of 0.984

The compound listed as O=P1(NCCCl)OCCCN1CCCl (stereo not drawn) has a reported normalized growth of 0.992

The compound listed as CC(=O)N[C@@H](Cc1c[nH]c2ccccc12)C(N)=O has a reported normalized growth of 1.01
